Listing: EC50 of selected molecules
system: VEEV TC83; experiment: microbe, parasite or virus in culture; type: cell-based; details: Venezuelan equine encephalitis virus, Vero 76, 48 h, read-out: VEEV TC83 EC50 nM

Query string: // EC50 lookup, key: COc1ccc(-n2c(C3CCCN3)nc3c(Oc4ccc(C)nc4)cc(C#N)cc3c2=O)cc1F (stereo not drawn)
Result string: 1 to 50 nM

Query string: For O=c1c2cc([N+](=O)[O-])ccc2nc([C@H]2CCCN2)n1-c1ccccc1 then?
Result string: 1 to 50 nM

Query string: Now consider COc1ccc(-n2c([C@@H]3CCCN3)nc3c(C)cc(C#N)cc3c2=O)cc1 and answer again.
Result string: 151 to 500 nM

Query string: And Cc1ccc(-c2cc(C#N)cc3c(=O)n(-c4ccc(O)c(F)c4)c([C@H]4CCCN4)nc23)cn1 ?
Result string: 51 to 150 nM

Query string: Moving on to COc1ccc(-n2c([C@@H]3CCCN3)nc3c(Br)cc(C#N)cc3c2=O)cc1F
Result string: 1 to 50 nM

Query string: Follow-up item: COc1ccc(-n2c(C3CCCN3)nc3c(-c4ccc(OC(F)(F)F)cc4)cc(C#N)cc3c2=O)cc1F (stereo not drawn)
Result string: 1 to 50 nM

Query string: Thanks! And COc1ccc(-n2c([C@H]3CCCN3)nc3c(-c4cncc(F)c4)cc(C#N)cc3c2=O)cc1F ?
Result string: 1 to 50 nM

Query string: Would you mind doing COc1ccc(-n2c(C3CCCN3)nc3c(-c4cnc(C)c(C)c4)cc(C#N)cc3c2=O)cc1F (stereo not drawn) as well?
Result string: 1 to 50 nM

Query string: Same thing, different molecule: COc1ccc(-n2c(C3CCCN3Cc3ccc(F)cc3)nc3c(C)cc([N+](=O)[O-])cc3c2=O)cc1F (stereo not drawn)
Result string: 51 to 150 nM

Query string: And the next one, COc1ccc(-n2c([C@H]3C[C@H](F)CN3)nc3c(C)cc([N+](=O)[O-])cc3c2=O)cc1F ?
Result string: 51 to 150 nM

Next:
Query string: Please give the measured EC50 for this molecule: COc1ccc(-n2c([C@H]3CCCN3)nc3c(-c4cccnc4)cc(C#N)cc3c2=O)cc1F
Result string: 1 to 50 nM

Query string: Try this molecule next: COc1ccc(-n2c([C@@H]3C[C@H](C(F)(F)F)CN3)nc3c(-c4ccc(C)nc4)cc(C#N)cc3c2=O)cc1F (racemic)
Result string: 1 to 50 nM

Query string: Now consider CN1CCC(N2CCC[C@H]2c2nc3ccc([N+](=O)[O-])cc3c(=O)n2-c2ccccc2)CC1 .
Result string: > 1000 nM

Query string: Try this molecule next: COc1ccc(-n2c([C@@H]3C[C@@H]4CCCC[C@@H]4N3)nc3c(-c4ccc(C)nc4)cc(C#N)cc3c2=O)cc1F
Result string: 1 to 50 nM

Query string: Again, but for COc1ccc(-n2c([C@H]3CCCN3)nc3c(-c4ccc(F)nc4)cc(C#N)cc3c2=O)cc1F
Result string: 1 to 50 nM

---

tested on: VEEV TC83; experiment: microbe, parasite or virus in culture; format: cell-based; details: Venezuelan equine encephalitis virus, Vero 76, 48 h, read-out: VEEV TC83 EC50 nM
Property name: EC50

Below, 5 compounds whose answers are already recorded.
Query string: Using the record for Cc1cc(-c2cc(C#N)cc3c(=O)n(-c4cc(F)c(N5CC6(COC6)C5)c(F)c4)c(C4CCCN4)nc23)cc(C)n1 (stereo not drawn) , report its EC50.
Result string: > 1000 nM

Query string: Proceed to O=c1c2cc([N+](=O)[O-])ccc2nc([C@@H]2CCCN2C2CCOCC2)n1-c1ccccc1
Result string: 501 to 1000 nM

Query string: Another compound to look at: COc1ccc(-n2c(C3CCCN3)nc3c(CCc4ccc(C)nc4)cc(C#N)cc3c2=O)cc1F (stereo not drawn)
Result string: 51 to 150 nM

Query string: Now the same for CNC(C)c1nc2ccc([N+](=O)[O-])cc2c(=O)n1-c1ccc(OC)cc1 (stereo not drawn)
Result string: 51 to 150 nM

Query string: Another compound to check: COc1ccc(-n2c([C@H]3CCCN3)nc3c(-c4ccc(C(F)(F)F)nc4)cc([N+](=O)[O-])cc3c2=O)cc1F
Result string: 1 to 50 nM

// below: EC50 requested for another compound
Query string: Reported EC50 for COc1cccc(-c2cc(C#N)cc3c(=O)n(-c4ccc(OC)c(F)c4)c(C4CCCN4)nc23)c1 (stereo not drawn) : what is it?
Result string: 1 to 50 nM

---

# Lookup of reported EC50 keyed by entry
tested on: VEEV TC83; assay: microbe, parasite or virus in culture; assay type: cell-based; conditions: Venezuelan equine encephalitis virus, Vero 76, 48 h, read-out: VEEV TC83 EC50 nM

Query string: Could you share which EC50 value was measured for COc1ccc(-n2c([C@@H]3CCCN3)nc3c(C)cc([N+](=O)[O-])cc3c2=O)cc1 [Example 56] ?
Result string: 1 to 50 nM

Query string: Item: COc1ccc(-n2c([C@H]3CCCN3)nc3c(C(F)(F)F)cc(C#N)cc3c2=O)cc1 [Example 74]
Result string: 1 to 50 nM

Query string: Similarly, COc1ccc(-n2c([C@H]3CCCN3C3COC3)nc3ccc([N+](=O)[O-])cc3c2=O)cc1 [Example 11] ?
Result string: 51 to 150 nM

Others:
Query string: May I ask what EC50 has been recorded for COc1ccc(-n2c(C3CC4CCC3N4)nc3c(-c4ccc(C)nc4)cc(C#N)cc3c2=O)cc1F (stereo not shown) [Example 143] ?
Result string: 51 to 150 nM

---

tested on: VEEV TC83; assay: microbe, parasite or virus in culture; assay type: cell-based; details: Venezuelan equine encephalitis virus, Vero 76, 48 h, read-out: VEEV TC83 EC50 nM
// values below are reported EC50

Sample answers from the record:
Query string: Form field: reported EC50 of COc1ccc(-n2c(C3CCCN3)nc3c(-c4ccc(OC)c(OC)c4)cc(C#N)cc3c2=O)cc1F (stereo not shown)
Result string: 1 to 50 nM

Query string: Now consider COc1ccc(-n2c([C@H]3C[C@H](F)CN3)nc3c(C)cc(C#N)cc3c2=O)cc1 and answer again.
Result string: 151 to 500 nM

Query string: Ok, now O=c1c2cc([N+](=O)[O-])ccc2nc(C2CCCN2)n1-c1ccccc1 (stereo not shown)
Result string: 51 to 150 nM

---
Query string: Tell me the measured EC50 of N#Cc1cc(-c2ccc(C(F)(F)F)nc2)c2nc([C@H]3CCCN3)n(-c3ccc(O)c(F)c3)c(=O)c2c1 , please.
Result string: 51 to 150 nM

Query string: Next record, please: COc1ccc(-n2c([C@H]3CCCN3)nc3c(N4CCOCC4)cc(C#N)cc3c2=O)cc1F
Result string: 1 to 50 nM

Query string: What do you have for COc1ccc(-n2c([C@H]3CCCN3)nc3c(-c4cncnc4)cc(C#N)cc3c2=O)cc1F ?
Result string: 51 to 150 nM

Query string: Same lookup for COc1ccc(-n2c(-c3ccccn3)nc3c(-c4ccc(C)nc4)cc(C#N)cc3c2=O)cc1F , please.
Result string: > 1000 nM

---

test system: WEEV California; assay: microbe, parasite or virus in culture; assay type: cell-based; conditions: Western equine encephalitis virus, Vero 76, 48 h, read-out: WEEV California EC50 nM
Quick list: EC50 per entry.

Please review the entries below; each comes with its answer.
Query string: Fill blank: measured EC50 of the molecule COc1ccc(-n2c([C@@H]3CCCN3)nc3c(F)cc(C#N)cc3c2=O)cc1 [Example 79] is ____.
Result string: 501 to 1000 nM

Query string: Consider next the molecule COc1ccc(-n2c([C@H]3CCNC3)nc3ccc([N+](=O)[O-])cc3c2=O)cc1 [Example 18] in the same way.
Result string: 151 to 500 nM

Query string: Another molecule: O=c1c2cc([N+](=O)[O-])ccc2nc([C@H]2CCCN2C2CCOCC2)n1-c1ccccc1 [Example 3]
Result string: > 1000 nM

Query string: Check N#Cc1cccc(-n2c([C@H]3CCCN3)nc3ccc([N+](=O)[O-])cc3c2=O)c1 [Example 21] too.
Result string: > 1000 nM

Query string: Request: COc1ccc(-n2c([C@H]3CCCN3)nc3c(-c4cncc(F)c4)cc([N+](=O)[O-])cc3c2=O)cc1F [Example 93]
Result string: 1 to 50 nM

Continuing:
Query string: Need EC50 of COc1ccc(-n2c([C@@H]3CCCN3C)nc3c(C)cc([N+](=O)[O-])cc3c2=O)cc1 [Example 58] , thanks.
Result string: 1 to 50 nM

Query string: Next record, please: COc1ccc(-n2c(-c3ccon3)nc3c(-c4ccc(C)nc4)cc(C#N)cc3c2=O)cc1F [Example 199]
Result string: > 1000 nM

Query string: What about COc1ccc(-n2c(C3CCCN3)nc3c(-c4cnc(C)c(C)c4)cc(C#N)cc3c2=O)cc1F (stereo not drawn) [Example 137] ?
Result string: 1 to 50 nM
